# tested.on: murine GRPRs (Mus musculus, UniProt P21729)
# Construct: from tissue; host or cells: organs of male NMRI mice, in vivo (pancreas, stomach, small intestine and others)
# Sequence (P21729 whole entry): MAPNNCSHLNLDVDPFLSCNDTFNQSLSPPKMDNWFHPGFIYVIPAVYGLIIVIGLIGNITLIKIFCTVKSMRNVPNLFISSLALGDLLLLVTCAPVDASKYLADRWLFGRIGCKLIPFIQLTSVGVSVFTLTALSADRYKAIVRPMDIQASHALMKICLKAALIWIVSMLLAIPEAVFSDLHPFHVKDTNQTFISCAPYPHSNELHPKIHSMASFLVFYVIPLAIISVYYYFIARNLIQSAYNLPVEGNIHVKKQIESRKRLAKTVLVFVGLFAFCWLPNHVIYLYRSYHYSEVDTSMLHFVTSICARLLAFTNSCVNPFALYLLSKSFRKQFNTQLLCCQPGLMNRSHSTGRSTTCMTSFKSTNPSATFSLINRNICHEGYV
# method: Biodistribution and in vivo binding specificity in NMRI mice
# condition.parameters: stomach, iv, total radioactivity, male NMRI mice, 45 pmol i.v., blocked (co-injected 20 nmol non-labeled peptide), 1 h p.i., read-out: Stomach uptake
measured.quantity: tissue uptake at 1 h (%ID/g)
Give bare numbers, in %ID/g.

Entry CC(C)C[C@H](NC(=O)C[C@H](O)[C@H](CC(C)C)NC(=O)[C@H](Cc1c[nH]cn1)NC(=O)CNC(=O)[C@@H](NC(=O)[C@H](C)NC(=O)[C@H](Cc1c[nH]c2ccccc12)NC(=O)[C@H](CCC(N)=O)NC(=O)[C@@H](Cc1ccccc1)NC(=O)COCCOCCNC(=O)CN1CCN(CC(=O)O)CCN(CC(=O)O)CC1)C(C)C)C(N)=O [[^18F]AlF-NOTA-P2-RM26] ; tissue uptake at 1 h = 0.3
